- Tested on: atherosclerosis in apo E knockout mice
- method.notes: Peptide immunization of Apo E (−/−) mice on high cholesterol diet: atherosclerotic plaque size and composition
- conditions: immunization of apo E knockout mice with single peptide sequence or mixture (Table B)
Please note: Effect on atherosclerosis in the aorta exactly at -30% is f. Only values below -30% get t.

Field: example entries. Status: answers known.
INSERT INTO results (seq_string, label_class) VALUES
  ('ATRFKHLRKYTYNYQAQSSS [Peptide 2]', 't'),
  ('VISIPRLQAEARSEILAHWS [Peptide 74]', 't'),
  ('EEEMLENVSLVCPKDATRFK [Peptide 1]', 'f'),
  ('IEIGLEGKGFEPTLEALFGK [Peptide 45]', 't'),
  ('HTFLIYITELLKKLQSTTVM [Peptide 301]', 't');

input: Does FPDLGQEVALNANTKNQKIR [Peptide 240] have Effect on atherosclerosis in the aorta strictly under -30%?
output: f

input: Does KTTKQSFDLSVKAQYKKNKH [Peptide 210] have Effect on atherosclerosis in the aorta strictly under -30%?
output: t
